Let's look at some molecules and their measured melting point.

Below are worked cases with known answers.
>>> result("COc1cc(C(=O)N2CCN(CC#CCN3CCOCC3(C)C)C[C@H]2Cc2ccc(Cl)cc2)cc(C(F)(F)F)c1.Cl.Cl")
"110 to 140 °C"
>>> result("COc1cc(C(=O)N2CCN(CC#CCN3CCOCC3(C)C)C[C@H]2Cc2ccc3ccccc3c2)cc(C(F)(F)F)c1.Cl.Cl")
"190 to 199 °C"
>>> result("COc1cc(C[C@@H]2CN(CCN3[C@H](CO)CCC[C@@H]3CO)CCN2C(=O)c2cc(C(F)(F)F)cc(C(F)(F)F)c2)ccc1F.Cl.Cl")
"159 to 161 °C"
>>> result("C[C@@H]1CN(CCN2CCN(C(=O)c3cc(C(F)(F)F)cc(S(C)(=O)=O)c3)[C@H](Cc3ccc(C(F)(F)F)cc3)C2)C[C@H](C)O1.Cl.Cl")
"188 to 195 °C"
>>> result("COc1cc(C[C@@H]2CN(Cc3cnn(C)c3)CCN2C(=O)c2cc(C(F)(F)F)cc(C(F)(F)F)c2)ccc1F.Cl")
"127 to 135 °C"
>>> result("COC[C@@H]1CN(CCN2CCN(C(=O)c3cc(SC)cc(C(F)(F)F)c3)[C@H](Cc3ccc(C)c(O)c3)C2)CCO1.Cl.Cl")
"154 to 168 °C"
>>> result("COc1cc(C[C@@H]2CN(CCN3C[C@@H](C)O[C@@H](C)C3)CCN2C(=O)c2cc(C(F)(F)F)cc(C(F)(F)F)c2)ccc1C(F)(F)F.Cl.Cl")
"160 to 170 °C"
>>> result("COC[C@@H]1CN(CCN2CCN(C(=O)c3cc(-c4ccncc4)cc(C(F)(F)F)c3)[C@H](Cc3ccc(C)c(O)c3)C2)CCO1.Cl.Cl.Cl")
"169 to 173 °C"
>>> result("COC[C@H]1CN(CCN2CCN(C(=O)c3cc(C(F)(F)F)cc(C(F)(F)F)c3)[C@H](Cc3ccc(F)c(OC)c3)C2)CCO1.Cl.Cl")
"139 to 148 °C"
>>> result("C[C@@H]1CN(CCN2CCN(C(=O)c3cc(C(F)(F)F)cc(S(C)(=O)=O)c3)[C@H](Cc3ccc(Cl)cc3)C2)C[C@H](C)O1.Cl.Cl")
"138.4 to 142.5 °C"

# melting point (molecule: `Cl.Cn1cc(CN2CCN(C(=O)c3cc(C(F)(F)F)cc(C(F)(F)F)c3)[C@H](Cc3ccc(Cl)c(O)c3)C2)cn1` ) is 159 to 163 °C

# melting point (molecule: `COC[C@@H]1CN(CCN2CCN(C(=O)c3cc(OC)cc(C(F)(F)F)c3)[C@H](Cc3ccc(C(F)(F)F)cc3)C2)CCO1.Cl.Cl` ) is 126 to 155 °C

# melting point (molecule: `Cl.Cl.O=C(c1cc(C(F)(F)F)cc(C(F)(F)F)c1)N1CCN(Cc2cccnc2)C[C@H]1Cc1ccc(F)cc1` ) is 130 to 137.3 °C

# melting point (molecule: COC[C@@H]1CN(CCN2CCN(C(=O)c3cc(C(F)(F)F)cc(C(F)(F)F)c3)[C@H](Cc3ccc(C)c(O)c3)C2)CCO1.Cl.Cl [Example 13] ) is 206 to 224.5 °C

# melting point (molecule: `COc1cc(C(=O)N2CCN(CCN3CCC(F)(F)CC3)C[C@H]2Cc2ccc3ccccc3c2)cc(C(F)(F)F)c1.Cl.Cl` ) is 243 to 260 °C

# melting point (molecule: `COC[C@H]1CN(CCN2CCN(C(=O)c3cc(OC)cc(C(F)(F)F)c3)[C@H](Cc3c[nH]c4ccccc34)C2)CCO1.Cl.Cl` ) is 200 to 210 °C

# melting point (molecule: `COc1cc(C(=O)N2CCN(CCN3CCc4ncccc4C3)C[C@H]2Cc2ccc3ccccc3c2)cc(C(F)(F)F)c1.Cl.Cl.Cl` ) is 173 to 183 °C

# melting point (molecule: `COc1cc(C(=O)N2CCN(CCCc3cccnc3)C[C@H]2Cc2ccc(Cl)c(O)c2)cc(C(F)(F)F)c1.Cl.Cl` ) is 90 to 110 °C
